Origin of measurements: patent US20100311714A1

Target: mTOR (Homo sapiens, UniProt P42345)
Construct: purchased Invitrogen Corporation (Carlsbad/Calif., USA) PV4753
Sequence (P42345 1360-2549 limits assumed): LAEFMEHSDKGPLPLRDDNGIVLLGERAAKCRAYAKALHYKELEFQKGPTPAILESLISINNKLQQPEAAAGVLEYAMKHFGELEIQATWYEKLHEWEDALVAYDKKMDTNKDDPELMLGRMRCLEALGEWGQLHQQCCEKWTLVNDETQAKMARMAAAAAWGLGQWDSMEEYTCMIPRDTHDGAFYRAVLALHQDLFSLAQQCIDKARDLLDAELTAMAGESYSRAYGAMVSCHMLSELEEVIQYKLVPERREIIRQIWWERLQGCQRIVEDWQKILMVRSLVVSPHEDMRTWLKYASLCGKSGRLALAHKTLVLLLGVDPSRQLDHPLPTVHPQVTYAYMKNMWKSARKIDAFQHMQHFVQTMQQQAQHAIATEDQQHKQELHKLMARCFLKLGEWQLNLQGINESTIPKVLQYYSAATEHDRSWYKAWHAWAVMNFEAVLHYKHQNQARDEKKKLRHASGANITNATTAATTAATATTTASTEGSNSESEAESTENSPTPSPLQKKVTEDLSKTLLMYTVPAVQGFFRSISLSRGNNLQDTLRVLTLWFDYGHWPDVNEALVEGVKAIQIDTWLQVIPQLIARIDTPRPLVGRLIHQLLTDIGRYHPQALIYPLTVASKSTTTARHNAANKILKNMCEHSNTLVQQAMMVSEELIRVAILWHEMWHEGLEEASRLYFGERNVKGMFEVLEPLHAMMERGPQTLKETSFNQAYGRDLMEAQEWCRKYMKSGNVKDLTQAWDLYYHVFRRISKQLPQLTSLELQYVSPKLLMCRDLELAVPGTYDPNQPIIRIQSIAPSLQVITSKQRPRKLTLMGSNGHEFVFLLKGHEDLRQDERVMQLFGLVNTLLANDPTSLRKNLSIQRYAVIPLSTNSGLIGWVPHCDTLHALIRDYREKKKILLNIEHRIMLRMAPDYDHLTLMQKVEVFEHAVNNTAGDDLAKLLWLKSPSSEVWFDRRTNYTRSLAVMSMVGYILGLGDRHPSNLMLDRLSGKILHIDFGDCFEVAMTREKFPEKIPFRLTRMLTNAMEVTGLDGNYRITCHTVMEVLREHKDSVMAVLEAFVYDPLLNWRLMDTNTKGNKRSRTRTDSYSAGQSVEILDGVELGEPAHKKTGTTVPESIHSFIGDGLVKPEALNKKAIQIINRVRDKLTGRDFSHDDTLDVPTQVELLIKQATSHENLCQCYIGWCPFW
Assay: Biochemical assay for m-TOR by TR-FRET
Details: read-out: EPK_mTOR/IC50
assay_metric: IC50 (nM)
One number for each entry, in nM.

COc1ccc(-n2c(=O)n(C)c3cnc4ccc(-c5cnc(CO)c(OC)c5)cc4c32)c(C)n1 : 46
COCc1ncc(-c2ccc3ncc4c(c3c2)n(-c2ccc(N3CCC3)nc2C)c(=O)n4C)cc1OC(C)C : 44
CCOc1cc(-c2ccc3ncc4c(c3c2)n(-c2ccc(F)nc2C)c(=O)n4C)cnc1COC : 88
CNc1ncc(-c2ccc3ncc4c(c3c2)n(-c2ccc(N3CC(O)C3)nc2C)c(=O)n4C)cc1F : 8

For each of the compounds below, state IC50.
1. CCOc1ccc(-c2ccc3ncc4c(c3c2)n(-c2ccc(OCCOC)nc2C)c(=O)n4C)cn1
2. CCOc1ccc(-c2ccc3ncc4c(c3c2)n(-c2ccc(N(C)CCOC)nc2C)c(=O)n4C)cn1

OUTPUT:
1: 49; 2: 120

INPUT: Kindly indicate its recorded IC50. Item: `CCNc1ncc(-c2ccc3ncc4c(c3c2)n(-c2ccc(F)nc2C)c(=O)n4C)cn1`
OUTPUT: 36

###

Molecular target: PI3K beta (Homo sapiens)
Construct: for the full-length p110-b subunit are generated and fused by overlapping PCR; His tag (C); made in house; host or cells: baculovirus BV949; Tn5 (Trichoplusia ni) or TiniPro insect cells
Assay: PI3K beta kinase assay (Kinase-Glo luminescence)
Type: biochemical
Details: read-out: EPK_PI3Kbeta/IC50
assay_metric: log10 of IC50 (log10 of the value in nM)
Values are log10 of IC50 in nM.

Some solved entries appear below for comparison.
COCC(=O)Nc1ccc(-n2c(=O)n(C)c3cnc4ccc(-c5cncc(OC(C)C)c5)cc4c32)c(C)n1 : 2.73
Cc1nc(N2CCC(O)C2)ccc1-n1c(=O)n(C)c2cnc3ccc(-c4cncc(OC(C)C)c4)cc3c21 (stereo not drawn) : 1.11
Cc1nc(C(C)(C)O)ccc1-n1c(=O)n(C)c2cnc3ccc(-c4cncc(C(C)(C)C#N)c4)cc3c21 : 1.40
CCNc1cc(-c2ccc3ncc4c(c3c2)n(-c2ccc(OC)nc2Cl)c(=O)n4C)cnc1C : 1.61
COc1cc(-c2ccc3ncc4c(c3c2)n(-c2ccc(N3CC[C@H](O)C3)nc2C)c(=O)n4C)cnc1CO : 2.30

For each of the molecules below, state log10 of IC50.
1. CCNc1ncc(-c2ccc3ncc4c(c3c2)n(-c2ccc(N3CC[C@H](O)C3)nc2C)c(=O)n4C)c(OC)n1
2. Cc1nc(N2CC(F)(F)C(F)(F)C2)ccc1-n1c(=O)n(C)c2cnc3ccc(-c4cnc(N)c(CO)c4)cc3c21
3. CCNc1cc(-c2ccc3ncc4c(c3c2)n(-c2ccc(N3CC(F)(F)C3)nc2C)c(=O)n4C)cnc1CO
4. Cc1ccc(-n2c(=O)n(C)c3cnc4ccc(-c5cnc6c(ccn6C)c5)cc4c32)c(C)n1
5. CCOc1cc(-c2ccc3ncc4c(c3c2)n(-c2cccnc2C)c(=O)n4C)cnc1COC

OUTPUT:
1: 2.59; 2: 2.32; 3: 1.43; 4: 3.04; 5: 2.75

For each of the molecules below, state log10 of IC50.
1. Cc1cc(F)ncc1-n1c(=O)n(C)c2cnc3ccc(-c4cnc5c(ccn5C)c4)cc3c21
2. CNc1ccc(-c2ccc3ncc4c(c3c2)n(-c2ccc(N3CCCC3)nc2C)c(=O)n4C)cn1
3. COCc1ncc(-c2ccc3ncc4c(c3c2)n(-c2ccc(F)nc2C)c(=O)n4C)cc1OC
4. CCNc1cc(-c2ccc3ncc4c(c3c2)n(-c2ccc(N3CCCC3)nc2C)c(=O)n4C)cnc1CO

OUTPUT:
1. 2.42
2. 3.18
3. 2.56
4. 1.08

###

Target: PI3K beta (Homo sapiens, UniProt P42338)
Construct: for the full-length p110-b subunit are generated and fused by overlapping PCR; His tag (C); made in house; host or cells: baculovirus BV949; Tn5 (Trichoplusia ni) or TiniPro insect cells
Sequence (P42338 with tags, fused parts or gaps limits assumed): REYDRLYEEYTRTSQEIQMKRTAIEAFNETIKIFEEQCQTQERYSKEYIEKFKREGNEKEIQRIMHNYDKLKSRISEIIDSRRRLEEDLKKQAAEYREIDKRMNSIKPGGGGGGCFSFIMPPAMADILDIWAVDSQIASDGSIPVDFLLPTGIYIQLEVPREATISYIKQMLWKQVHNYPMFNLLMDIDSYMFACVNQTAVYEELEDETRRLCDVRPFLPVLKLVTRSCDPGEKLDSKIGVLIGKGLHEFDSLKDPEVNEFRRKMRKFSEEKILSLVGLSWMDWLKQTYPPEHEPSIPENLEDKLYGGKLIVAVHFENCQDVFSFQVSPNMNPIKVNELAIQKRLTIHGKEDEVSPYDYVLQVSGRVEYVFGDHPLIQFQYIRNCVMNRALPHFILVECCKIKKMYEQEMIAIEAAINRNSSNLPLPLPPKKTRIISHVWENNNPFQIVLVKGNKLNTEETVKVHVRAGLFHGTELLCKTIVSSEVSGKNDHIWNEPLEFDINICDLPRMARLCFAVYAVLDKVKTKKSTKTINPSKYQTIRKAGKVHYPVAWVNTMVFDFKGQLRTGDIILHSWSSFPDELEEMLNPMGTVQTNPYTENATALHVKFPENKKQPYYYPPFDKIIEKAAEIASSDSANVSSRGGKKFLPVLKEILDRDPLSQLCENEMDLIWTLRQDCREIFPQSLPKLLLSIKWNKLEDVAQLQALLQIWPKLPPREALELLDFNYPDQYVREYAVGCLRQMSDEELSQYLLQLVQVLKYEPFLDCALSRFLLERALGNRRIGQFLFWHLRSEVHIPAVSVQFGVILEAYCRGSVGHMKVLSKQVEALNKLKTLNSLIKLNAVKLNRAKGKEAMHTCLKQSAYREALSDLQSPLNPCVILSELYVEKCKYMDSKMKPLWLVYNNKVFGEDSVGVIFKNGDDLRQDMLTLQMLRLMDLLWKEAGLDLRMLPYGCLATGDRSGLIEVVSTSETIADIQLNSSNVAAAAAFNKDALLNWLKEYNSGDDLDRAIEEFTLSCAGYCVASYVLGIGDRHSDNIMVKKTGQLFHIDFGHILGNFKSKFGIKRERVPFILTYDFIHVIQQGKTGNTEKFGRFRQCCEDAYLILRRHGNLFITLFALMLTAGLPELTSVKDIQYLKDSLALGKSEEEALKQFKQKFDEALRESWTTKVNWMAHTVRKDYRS
Experiment: PI3K beta kinase assay (Kinase-Glo luminescence)
Type: biochemical
Conditions: read-out: EPK_PI3Kbeta/IC50
assay_metric: IC50 (nM)
Give bare numbers, in nM.

CCNc1cc(-c2ccc3ncc4c(c3c2)n(-c2cccnc2C)c(=O)n4C)cnc1CO : 67
CCOc1cc(-c2ccc3ncc4c(c3c2)n(-c2ccc(N3CCC3)nc2C)c(=O)n4C)cnc1COC : 208

For each of the compounds below, state IC50.
1. CNc1ccc(-c2ccc3ncc4c(c3c2)n(-c2ccc(N3CCC3)nc2C)c(=O)n4C)cn1
2. COCc1ncc(-c2ccc3ncc4c(c3c2)n(-c2ccc(OC)nc2OC)c(=O)n4C)cc1OC
3. CNc1ncc(-c2ccc3ncc4c(c3c2)n(-c2cnc(F)cc2C)c(=O)n4C)cn1
4. CCNc1ncc(-c2ccc3ncc4c(c3c2)n(-c2ccc(N3CC[C@H](O)C3)nc2C)c(=O)n4C)cn1
5. COc1ncc(-c2ccc3ncc4c(c3c2)n(-c2ccc(N3CC(O)C3)nc2C)c(=O)n4C)c(OC)n1
6. CNC(=O)c1cc(-c2ccc3ncc4c(c3c2)n(-c2ccc(F)nc2C)c(=O)n4C)cnc1N

OUTPUT:
441
212
1180
401
59
14

###

Test: Parallel Artificial Membrane Permeability Assay (PAMPA) at pH 6.8
Type: physicochemical
assay_metric: HT-Perm logPe pH6.8
Numbers only.

Cc1nc(N2CCCC2)ccc1-n1c(=O)n(C)c2cnc3ccc(-c4cncc(C(C)(C)O)c4)cc3c21 [Example 25.3] : −4.5
Cc1nc(N2CC(F)(F)C2)ccc1-n1c(=O)n(C)c2cnc3ccc(-c4cncc(C(C)(C)O)c4)cc3c21 [Example 24.2] : −5
CCOc1cc(-c2ccc3ncc4c(c3c2)n(-c2ccc(OCCOC)nc2C)c(=O)n4C)cnc1COC [Example 22.1] : −3.8
CCNc1cc(-c2ccc3ncc4c(c3c2)n(-c2ccc(N3CC(O)C3)nc2C)c(=O)n4C)cnc1CO [Example 29.2] : −7.1

For each of the compounds below, state HT-Perm logPe pH6.8.
1. CCOc1cc(-c2ccc3ncc4c(c3c2)n(-c2ccc(N3CCC3)nc2C)c(=O)n4C)cnc1COC [Example 23.5]
2. COCCN(C)c1ccc(-n2c(=O)n(C)c3cnc4ccc(-c5cnc(N)c(C(F)(F)F)c5)cc4c32)c(C)n1 [Example 15.1]
3. Cc1nc(N2CCC2)ccc1-n1c(=O)n(C)c2cnc3ccc(-c4cncc(OC(C)C)c4)cc3c21 [Example 23.9]
4. CCOc1cc(-c2ccc3ncc4c(c3c2)n(-c2ccc(F)nc2C)c(=O)n4C)cnc1COC [Example 7.5]

OUTPUT:
−3.8
−4
−3.7
−3.7

For each of the compounds below, state HT-Perm logPe pH6.8.
1. CNc1ccc(-c2ccc3ncc4c(c3c2)n(-c2ccc(OCCOC)nc2C)c(=O)n4C)cn1 [Example 13.3]
2. CNc1ncc(-c2ccc3ncc4c(c3c2)n(-c2ccc(N(C)CCOC)nc2C)c(=O)n4C)cn1 [Example 15.2]
3. CNc1ccc(-c2ccc3ncc4c(c3c2)n(-c2ccc(N3CCCC3)nc2C)c(=O)n4C)cn1 [Example 25.1]
4. CNc1cc(-c2ccc3ncc4c(c3c2)n(-c2ccc(C(F)(F)F)nc2C)c(=O)n4C)cnc1CO [Example 33.2]
5. Cc1cc(F)ncc1-n1c(=O)n(C)c2cnc3ccc(-c4cnc5c(ccn5C)c4)cc3c21 [Example 16.5]
6. Cc1ccc(-n2c(=O)n(C)c3cnc4ccc(-c5cnc6c(ccn6C)c5)cc4c32)c(C)n1 [Example 14.7]
7. CNc1ncc(-c2ccc3ncc4c(c3c2)n(-c2ccc(C(C)(C)O)nc2C)c(=O)n4C)cc1F [Example 31.1]

OUTPUT:
1. −4
2. −3.9
3. −3.9
4. −4.8
5. −3.7
6. −4.3
7. −4.1

###

Target: mTOR (Homo sapiens)
Construct: purchased Invitrogen Corporation (Carlsbad/Calif., USA) PV4753
Assay: Biochemical assay for m-TOR by TR-FRET
Settings: read-out: EPK_mTOR/IC50
assay_metric: pIC50
Give bare numbers, as −log10 of the molar value.

CCOc1ccc(-c2ccc3ncc4c(c3c2)n(-c2ccc(N3CCC(O)C3)nc2C)c(=O)n4C)cn1 (stereo not shown) : 7.64
Cc1nc(N2CCC(O)C2)ccc1-n1c(=O)n(C)c2cnc3ccc(-c4cncc(OC(C)C)c4)cc3c21 (stereo not shown) : 7.60
COc1ccc(-n2c(=O)n(C)c3cnc4ccc(-c5cncc(N6CCC6)c5)cc4c32)c(OC)n1 : 8.30
CCOc1ccc(-c2ccc3ncc4c(c3c2)n(-c2ccc(C)nc2C)c(=O)n4C)cn1 : 7.59
Cc1nc(C(F)(F)F)ccc1-n1c(=O)n(C)c2cnc3ccc(-c4cncc(C(C)(C)O)c4)cc3c21 : 7.04
COc1ccc(-n2c(=O)n(C)c3cnc4ccc(-c5cnc(C(OC)OC)c(OC)c5)cc4c32)c(OC)n1 : 7.07

INPUT: Enter pIC50 (test system mTOR (Homo sapiens)) for `COc1ccc(-n2c(=O)n(C)c3cnc4ccc(-c5cnc(CO)c(OC)c5)cc4c32)c(OC)n1`
OUTPUT: 6.94
